Catalogue of pIC50 values
# measured.target: HLA A*3201 (Homo sapiens, UniProt P04439, A270S/D101S/D185E/E176V/E277Q/F133L/G103R/G107R/G231S/H175R/I121M/I218V/I322F/K168Q/L105A/L300P/L318F/M331R/P208A/P217A/Q94H/R106L/R138Q/S129P/T104I/T323A/T345S/V100E/V321M/V358M)
# experiment.summary: biochemical
pIC50: −log10 of the molar value. Where a SMILES comes first, the peptide text is derived from it.
metric.name: pIC50

- compound: "CC[C@H](C)[C@H](NC(=O)[C@@H](NC(=O)[C@H](CC(C)C)NC(=O)[C@H](CC(C)C)NC(=O)[C@H](CC(C)C)NC(=O)[C@H](CO)NC(=O)[C@H](Cc1ccccc1)NC(=O)[C@H](CC(C)C)NC(=O)[C@@H](N)CO)C(C)C)C(=O)O [3102.0328] (H-SLFSLLLVI-OH)"
  reported.result: 7.55
- compound: "CC[C@H](C)[C@H](N)C(=O)N[C@H](C(=O)N[C@@H](Cc1ccc(O)cc1)C(=O)N[C@@H](Cc1c[nH]c2ccccc12)C(=O)N[C@@H](CO)C(=O)N[C@@H](CCCNC(=N)N)C(=O)N[C@@H](Cc1ccccc1)C(=O)N[C@H](C(=O)N[C@H](C(=O)O)[C@@H](C)CC)[C@@H](C)O)[C@@H](C)O [3102.0387] (H-ITYWSRFTI-OH)"
  reported.result: 8.60
- compound: "CC[C@H](C)[C@H](NC(=O)[C@@H](NC(=O)[C@@H](NC(=O)[C@H](CC(N)=O)NC(=O)[C@H](Cc1ccccc1)NC(=O)[C@H](Cc1ccccc1)NC(=O)[C@@H](NC(=O)[C@@H](NC(=O)[C@@H](N)C(C)C)C(C)C)[C@@H](C)CC)[C@@H](C)O)[C@@H](C)CC)C(=O)O [3102.0431] (H-VVIFFNTII-OH)"
  reported.result: 7.82
- compound: "CC[C@H](C)[C@H](NC(=O)[C@H](CO)NC(=O)[C@@H](NC(=O)CNC(=O)[C@H](CC(C)C)NC(=O)[C@@H](NC(=O)[C@H](CO)NC(=O)[C@H](CCSC)NC(=O)[C@@H](N)CCCCN)[C@@H](C)CC)C(C)C)C(=O)O [3102.0388] (H-KMSILGVSI-OH)"
  reported.result: 8.62
- compound: "CC[C@H](C)[C@H](NC(=O)[C@H](CC(C)C)NC(=O)[C@H](CC(C)C)NC(=O)[C@H](Cc1ccccc1)NC(=O)[C@H](Cc1c[nH]cn1)NC(=O)[C@H](C)NC(=O)[C@H](CO)NC(=O)[C@@H](N)CCCCN)C(=O)N[C@@H](Cc1ccccc1)C(=O)O [3102.0491] (H-KSAHFLLIF-OH)"
  reported.result: 9.72
- compound: "CC[C@H](C)[C@H](NC(=O)[C@H](Cc1ccc(O)cc1)NC(=O)[C@H](Cc1c[nH]c2ccccc12)NC(=O)[C@H](CCSC)NC(=O)[C@@H](N)CO)C(=O)N1CCC[C@H]1C(=O)N[C@@H](CC(N)=O)C(=O)N[C@H](C(=O)N[C@@H](Cc1ccccc1)C(=O)O)C(C)C [3102.1192] (H-SMWYIPNVF-OH)"
  reported.result: 8.29
- compound: "CC[C@H](C)[C@H](NC(=O)[C@H](CC(N)=O)NC(=O)[C@@H](NC(=O)[C@@H](NC(=O)[C@@H](N)CO)[C@@H](C)O)[C@@H](C)CC)C(=O)N[C@@H](CS)C(=O)N[C@@H](CC(C)C)C(=O)N1CCC[C@H]1C(=O)N[C@@H](Cc1ccc(O)cc1)C(=O)O [3102.0390] (H-STINICLPY-OH)"
  reported.result: 7.49

Data credit: paper PMC2248166
